These measurements were taken from patent EP0536402A1.

- Measurement target: β -galactosidase
- Test: β-galactosidase inhibitory activity (colorimetric, O-nitrophenyl-β-D-galactopyranose substrate)
- Format: biochemical, Aspergillus sp.
- Experimental setup: Test Example 1; acetate buffer pH 5.0, 37°C, 15 minutes
Structures can show the parent of a compound that is named as a salt.
Decide by IC₅₀: equal to or exceeding 80 ng/mL means Criterion met, less means Criterion not met.

>>> class_assignment("CN1C[C@H](O)[C@@H](O)[C@@H](O)[C@H]1CO [Example 1, N-methyl-1-deoxygalactostatin]")
"Criterion not met"

Answer whether IC₅₀ of CC(C)CN1C[C@H](O)[C@@H](O)[C@@H](O)[C@H]1CO [Example 4, N-isobutyl-1-deoxygalactostatin] is greater than or equal to 80 ng/mL.
Criterion not met

Same for CCCCCCCN1C[C@H](O)[C@@H](O)[C@@H](O)[C@H]1CO [Example 5, N-n-heptyl-1-deoxygalacto-statin]
Criterion not met

Same for OC[C@@H]1[C@H](O)[C@H](O)[C@@H](O)CN1CCCc1ccccc1 [Example 7, N-(3-phenylpropyl)-1-deoxygalactostatin]
Criterion met

Same for CCCN1C[C@H](O)[C@@H](O)[C@@H](O)[C@H]1CO [Example 3, N-n-propyl-1-deoxygalactostatin]
Criterion not met

Same for CCCCCCCCCCCCN1C[C@H](O)[C@@H](O)[C@@H](O)[C@H]1CO [Example 6, N-n-dodecyl-1-deoxygalactostatin]
Criterion not met

Same for OC[C@@H]1[C@H](O)[C@H](O)[C@@H](O)CN1Cc1ccc(Cl)cc1 [Example 8, N-p-chlorobenzyl-1-deoxygalactostatin]
Criterion met

Same for OC[C@H]1NC[C@H](O)[C@@H](O)[C@H]1O [1-deoxygalactostatin hydrochloride, reference compound]
Criterion met

Same for C=CCN1C[C@H](O)[C@@H](O)[C@@H](O)[C@H]1CO [Example 9, N-allyl-1-deoxygalactostatin]
Criterion met

Same for OC[C@@H]1[C@H](O)[C@H](O)[C@@H](O)CN1CC=Cc1ccccc1 [Example 10, N-cinnamyl-1-deoxygalactostatin]
Criterion met
